From: BindingDB's records for PubMed 34843914

- MEASURED_TARGET: UniProt P09874
- Sequence (P09874 whole entry): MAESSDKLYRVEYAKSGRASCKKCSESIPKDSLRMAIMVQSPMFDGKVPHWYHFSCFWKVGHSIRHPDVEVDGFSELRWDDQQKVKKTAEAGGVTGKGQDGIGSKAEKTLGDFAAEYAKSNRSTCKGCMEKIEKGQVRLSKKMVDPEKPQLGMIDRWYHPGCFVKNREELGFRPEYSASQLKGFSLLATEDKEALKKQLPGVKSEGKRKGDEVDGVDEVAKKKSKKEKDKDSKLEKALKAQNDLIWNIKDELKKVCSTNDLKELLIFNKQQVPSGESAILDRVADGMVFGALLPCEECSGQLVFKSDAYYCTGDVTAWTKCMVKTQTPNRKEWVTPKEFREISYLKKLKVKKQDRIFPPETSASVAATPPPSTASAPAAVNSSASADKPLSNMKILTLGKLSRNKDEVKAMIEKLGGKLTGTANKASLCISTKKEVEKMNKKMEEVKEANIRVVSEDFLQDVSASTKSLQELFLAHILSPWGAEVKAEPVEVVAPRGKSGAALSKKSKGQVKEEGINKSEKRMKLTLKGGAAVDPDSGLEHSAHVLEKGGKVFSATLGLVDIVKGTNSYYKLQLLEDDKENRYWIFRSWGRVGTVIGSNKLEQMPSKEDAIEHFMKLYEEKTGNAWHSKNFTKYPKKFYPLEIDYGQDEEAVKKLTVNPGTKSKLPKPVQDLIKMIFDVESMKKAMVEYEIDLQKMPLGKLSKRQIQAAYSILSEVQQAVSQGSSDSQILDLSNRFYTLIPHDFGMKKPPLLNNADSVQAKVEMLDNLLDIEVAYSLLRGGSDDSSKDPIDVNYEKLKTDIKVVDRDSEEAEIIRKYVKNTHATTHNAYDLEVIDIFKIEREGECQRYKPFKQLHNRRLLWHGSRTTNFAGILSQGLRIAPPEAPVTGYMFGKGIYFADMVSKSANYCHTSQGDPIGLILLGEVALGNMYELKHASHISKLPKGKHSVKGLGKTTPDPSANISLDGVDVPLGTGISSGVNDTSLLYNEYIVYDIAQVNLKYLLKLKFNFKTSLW
- ASSAY_METHOD_TEXT: Inhibition of PARP1 (unknown origin)
MEASUREMENT_KIND: IC50 (nM)
Enter your answer as a number in nM; do not include the unit.

Any idea what IC50 was measured for O=c1cc(O)cc2oc(-c3ccc(O)c(-c4c(O)cc(O)c5c(=O)cc(-c6ccc(O)cc6)oc45)c3)cc(O)c1-2 ? 259
